Origin of measurements: ChEMBL document CHEMBL1157661

tgt: Adenosine receptor A1 (Homo sapiens, UniProt P30542)
Sequence (P30542 whole entry): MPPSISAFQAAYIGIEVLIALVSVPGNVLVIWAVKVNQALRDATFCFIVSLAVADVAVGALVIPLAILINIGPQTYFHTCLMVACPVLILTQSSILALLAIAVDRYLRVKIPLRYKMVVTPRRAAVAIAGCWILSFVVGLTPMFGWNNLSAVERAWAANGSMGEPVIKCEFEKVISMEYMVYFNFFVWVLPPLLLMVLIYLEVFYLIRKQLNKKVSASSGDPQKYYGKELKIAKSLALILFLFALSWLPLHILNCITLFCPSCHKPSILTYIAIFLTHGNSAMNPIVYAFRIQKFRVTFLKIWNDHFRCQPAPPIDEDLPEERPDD
assay_protocol: Displacement of [3H]DPCPX from human recombinant adenosine A1 receptor expressed in CHO-A1 cell membrane
pKi: −log10 of the molar value.
assay_endpoint: pKi

- test_smiles: "C=CCCCCCCCCCOCCOCCOCCOCCn1cnc2c1c(=O)n(C)c(=O)n2C"
  obs_value: 5.30
